Each recorded value in this set is attributed to patent US11407757B2.

# System: Gas6 ligand induced AKT phosphorylation
# method.summary: Gas6 ligand induced AKT phosphorylation, western blotting in H1299 NSCLC cells
# Type: cell-based
# condition.label: Homo sapiens, NCI-H1299, at 100 nM treatment, 100 ng/mL Gas6, read-out: inhibition activity against Gas6 ligand induced AKT phosphorylation
readout.kind: inhibition at 0.1 µM

COCCOc1nc(Nc2ccc(CN3CCN(C)CC3)cc2)nc2[nH]cc(-c3ccc(NC(=O)c4cc(C)n(C)n4)cc3)c12	> 50%
COCCOc1nc(Nc2ccc(CN3CCN(C)CC3)cc2)nc2[nH]cc(-c3ccc(OCc4ccncc4)cc3F)c12	> 50%
Cc1nc2ccc(-c3c[nH]c4nc(Nc5ccc(CN6CCN(C)CC6)cc5)nc(OCC5CCCO5)c34)cc2o1 (stereo not shown)	> 50%
COCCOc1nc(Nc2ccc(CN3CCC(C)CC3)cc2)nc2[nH]cc(-c3ccc(OCc4ccccn4)cc3F)c12	> 50%

---

Here's a batch of compounds along with measured pIC50 for Mer kinase (Homo sapiens (Human), UniProt Q12866).
pIC50: −log10 of the molar value.
readout.kind: pIC50

COc1nc(Nc2ccc(CN3CCOCC3)cc2)nc2[nH]cc(-c3ccc(S(=O)(=O)N(C)C)cc3)c12	< 6.00
COCCOc1nc(Nc2ccc(CN3CCC(C)CC3)cc2)nc2[nH]cc(-c3ccc(OCc4ccccn4)cc3F)c12	> 7.52
COCCOc1nc(Nc2ccc(CN3CCN(C)CC3)cc2)nc2[nH]cc(-c3ccc(OCc4ccncc4)cc3F)c12	< 6.00
COCCOc1nc(Nc2ccc(CN3CCN(C)CC3)cc2)nc2[nH]cc(-c3ccc(OCc4cccnc4)cc3F)c12	< 6.00
COCCOc1nc(Nc2ccc(CN3CCN(C)CC3)cc2)nc2[nH]cc(-c3ccc(S(=O)(=O)N4CCN(C)CC4)cc3)c12	< 6.00
COc1nc(Nc2ccc(CN3CCC(C)CC3)cc2)nc2[nH]cc(-c3ccc(NS(=O)(=O)c4cc(F)ccc4F)cc3)c12	> 7.52
COc1ccc(-c2c[nH]c3nc(Nc4ccc(CN5CCN(C)CC5)cc4)nc(OC)c23)cc1	< 6.00
COCCOc1nc(Nc2ccc(CN3CCN(C)CC3)cc2)nc2[nH]cc(-c3ccc(S(=O)(=O)C(C)C)cc3)c12	< 6.00
COCCOc1nc(Nc2ccc(CN3CCN(C)CC3)cc2)nc2[nH]cc(-c3ccc(O)cc3F)c12	> 7.52
COCCOc1nc(Nc2ccc(CN3CCN(C)CC3)cc2)nc2[nH]cc(-c3ccc(S(=O)(=O)N4CCC4)cc3)c12	< 6.00
COCCOc1nc(Nc2ccc(CN3CCN(C)CC3)cc2)nc2[nH]cc(-c3ccc(S(=O)(=O)N4CCCCC4)cc3)c12	< 6.00
COCCOc1nc(Nc2ccc(CN3CCN(C)CC3)cc2)nc2[nH]cc(-c3ccc(NC(=O)c4cc(C)n(C)n4)cc3)c12	< 6.00
COc1nc(Nc2ccc(CN3CCC(N)CC3)cc2)nc2[nH]cc(-c3ccc(S(=O)(=O)N(C)C)cc3)c12	< 6.00
COCCOc1nc(Nc2ccc(CN3CCN(C)CC3)cc2)nc2[nH]cc(-c3ccc(OCc4ccccc4)cc3F)c12	< 6.00

---

# target.or.test.system: Met kinase (Homo sapiens)
# method.summary: Met kinase assay (AlphaScreen)
# Assay type: biochemical
readout.kind: IC50

COCCOc1nc(Nc2ccc(CN3CCC(C)CC3)cc2)nc2[nH]cc(-c3ccc(OCc4ccccn4)cc3F)c12 [Compound 109]	400 to 1000 nM
COc1nc(Nc2ccc(CN3CCC(C)CC3)cc2)nc2[nH]cc(-c3ccc(NS(=O)(=O)c4cc(F)ccc4F)cc3)c12 [Compound 2]	100 to 400 nM
COCCOc1nc(Nc2ccc(CN3CCN(C)CC3)cc2)nc2[nH]cc(-c3ccc(S(=O)(=O)N4CCCCC4)cc3)c12 [Compound 98]	400 to 1000 nM
COCCOc1nc(Nc2ccc(CN3CCN(C)CC3)cc2)nc2[nH]cc(-c3ccc(O)cc3F)c12 [Compound 96]	100 to 400 nM
